System: spring wheat, TRZAS Triso
protocol-notes: Safener seed treatment, post-emergence herbicide application, crop damage
Format: in vivo
condition-notes: 21 DAT; HER dose 32 g a.i./ha; without safener

compound: COC(=O)C1COCC1NC(=O)C1(C)CC(c2cc(F)cc(F)c2)=NO1 (mixture of isomers)
HER effect [%] / %: 95
//
compound: COC(=O)C1CC(NC(=O)C2(OC)CC(c3cc(F)cc(F)c3)=NO2)CO1 (mixture of isomers)
HER effect [%] / %: 60
//
compound: COCCOC(=O)C1C=CC(NC(=O)C2(C)CC(c3cc(Cl)cc(C#N)c3)=NO2)C1 (centres unmarked)
HER effect [%] / %: 95
//
compound: C=CC1(C(=O)NC2C=CC(C(=O)O)C2)CC(c2cc(F)cc(F)c2)=NO1 (centres unmarked)
HER effect [%] / %: 93
//
compound: C=CC1(C(=O)NC2CC=C(C(=O)OC)C2)CC(c2cc(F)cc(F)c2)=NO1 (mixture of isomers)
HER effect [%] / %: 95

---

Entries annotated with measured Reduction [Difference]
Test system: spring barley, HORVS Montoya
protocol-notes: Safener seed treatment, post-emergence herbicide application, crop damage
Type: in vivo
Parameters: key: % crop damage without safener minus % damage with safener
condition-notes: 10 DAT; HER dose 32 g a.i./ha; cloquintocet-mexyl 0, 5 g a.i./kg seed
assay-endpoint: Reduction [Difference]

molecule: COC(=O)C1C=CC(NC(=O)C2(C(F)(F)F)CC(c3cccc(F)c3)=NO2)C1 (centres unmarked)
assay-endpoint: Reduction [Difference]
assay-value: 80

molecule: COC(=O)C1COCC1NC(=O)C1(C)CC(c2cc(F)cc(F)c2)=NO1 (mixture of isomers)
assay-endpoint: Reduction [Difference]
assay-value: 70

molecule: C=CC1(C(=O)NC2COC(C(=O)OCCOC)C2)CC(c2cc(C)cc(F)c2)=NO1 (mixture of isomers)
assay-endpoint: Reduction [Difference]
assay-value: 70

molecule: COC(=O)C1(C)CC(NC(=O)C2(C(C)(F)F)CC(c3cc(F)cc(F)c3)=NO2)CO1 (mixture of isomers)
assay-endpoint: Reduction [Difference]
assay-value: 80

molecule: C=CCOC(=O)C1CC(NC(=O)C2(C=C)CC(c3cc(C)cc(F)c3)=NO2)CO1 (mixture of isomers)
assay-endpoint: Reduction [Difference]
assay-value: 70

---

Tested on: spring wheat, TRZAS Triso
protocol-notes: Safener seed treatment, post-emergence herbicide application, crop damage
Type: in vivo
condition-notes: 10 DAT; HER dose 32 g a.i./ha; cloquintocet-mexyl 0, 5 g a.i./kg seed
Entries annotated with measured HER effect + SAF [%]

compound: COCCOC(=O)C1C=CC(NC(=O)C2(C(F)(F)F)CC(c3cc(F)cc(C#N)c3)=NO2)C1 (centres unmarked)
HER effect + SAF [%] / %: 10
//
compound: CSCCOC(=O)C1C=CC(NC(=O)C2(C(F)(F)F)CC(c3cc(F)cc(F)c3)=NO2)C1 (centres unmarked)
HER effect + SAF [%] / %: 50
//
compound: CC1(C(=O)NC2CC=C(C(=O)NS(C)(=O)=O)C2)CC(c2cc(F)cc(F)c2)=NO1 (mixture of isomers)
HER effect + SAF [%] / %: 0
//
compound: COC(=O)C1C=CC(NC(=O)C2(C)CC(c3cccc(F)c3)=NO2)C1 (centres unmarked)
HER effect + SAF [%] / %: 0
//
compound: C=CC1(C(=O)NC2COC(C(=O)OC)C2)CC(c2cc(C)cc(F)c2)=NO1 (mixture of isomers)
HER effect + SAF [%] / %: 0
